We begin with a simple list: items and their reported pEC50.
- system-tested: aggregated MBP-HTT(1-89)Q46-His(6×) (Exonl-Q46) protein (Q46 protein aggregates) (Homo sapiens (Human), UniProt P42858, INS38QQQQQQQQQQQQQQQQQQQQQQQQQ)
- Sequence (P42858 other isoform, or with tags, fused parts or gaps, stated change not applied): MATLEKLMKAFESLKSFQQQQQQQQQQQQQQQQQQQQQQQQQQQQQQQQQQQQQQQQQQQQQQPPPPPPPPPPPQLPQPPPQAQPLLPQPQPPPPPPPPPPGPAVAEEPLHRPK
- test-details: Q46 Radioligand Binding Assay
- measurement-parameters: same radioligand displacement on Exonl-Q46 aggregates; read-out: Q46_RBA EC50_
pEC50: −log10 of the molar value.

Example cases with answers are listed next.
>>> observed_value("COc1ccc(COc2ccc3c(c2)CN(c2cnn(C)c2)CC3)nc1")
"6.30 to 7.00"
>>> observed_value("COc1ccc(COc2ccc3c(c2)CCN(C(=O)c2ccc(OC)nn2)C3)nc1")
"> 7.00"

Below: the item to evaluate.
Quick note, pEC50 for COc1ccc(COc2cnc3c(c2)CN(C(=O)c2cncc(OC)c2)CC3)nc1 landed at > 7.00

Measured values drawn from patent US11992535B2 for this set.
